biological target: Disintegrin and metalloproteinase domain-containing protein 17 (Homo sapiens, UniProt P78536)
Sequence (P78536 whole entry, the tested form may be a part): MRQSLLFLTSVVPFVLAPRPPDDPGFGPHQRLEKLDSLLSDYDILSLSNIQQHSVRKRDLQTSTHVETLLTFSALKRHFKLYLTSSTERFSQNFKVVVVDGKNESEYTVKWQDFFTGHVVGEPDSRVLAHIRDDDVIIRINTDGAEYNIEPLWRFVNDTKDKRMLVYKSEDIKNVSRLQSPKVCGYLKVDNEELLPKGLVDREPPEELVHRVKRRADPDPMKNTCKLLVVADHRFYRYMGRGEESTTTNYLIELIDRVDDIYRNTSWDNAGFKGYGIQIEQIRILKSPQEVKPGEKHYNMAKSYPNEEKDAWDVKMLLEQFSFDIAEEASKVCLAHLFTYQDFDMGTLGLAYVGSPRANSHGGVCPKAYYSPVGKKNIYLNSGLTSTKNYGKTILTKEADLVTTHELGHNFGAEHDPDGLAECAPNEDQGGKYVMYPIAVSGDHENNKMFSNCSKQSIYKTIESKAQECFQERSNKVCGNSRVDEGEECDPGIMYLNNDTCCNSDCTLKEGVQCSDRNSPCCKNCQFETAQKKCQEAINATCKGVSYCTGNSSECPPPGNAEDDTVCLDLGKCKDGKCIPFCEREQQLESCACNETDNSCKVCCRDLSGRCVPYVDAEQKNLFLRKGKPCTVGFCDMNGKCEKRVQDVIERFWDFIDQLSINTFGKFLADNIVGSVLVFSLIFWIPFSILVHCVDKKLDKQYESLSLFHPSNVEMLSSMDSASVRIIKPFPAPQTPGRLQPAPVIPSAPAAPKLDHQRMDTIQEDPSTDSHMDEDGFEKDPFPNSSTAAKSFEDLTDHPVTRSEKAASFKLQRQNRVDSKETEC
pIC50: −log10 of the molar value.
Each item that follows carries a reported pIC50.
value.kind: pIC50

1. CCn1ccnc1[C@]1(CNC(=O)c2cc3cc(C(F)(F)F)ccc3o2)NC(=O)NC1=O    5.00
2. Cn1ccnc1[C@]1(CNC(=O)c2cc3cc(Cl)ccc3o2)NC(=O)NC1=O    5.00
3. Cc1cnc([C@]2(CNC(=O)c3cc4cc(C(F)(F)F)ccc4o3)NC(=O)NC2=O)n1C    5.00
4. Cc1cnc([C@]2(CNC(=O)c3cc4cc(Cl)ccc4o3)NC(=O)NC2=O)n1C    5.05
5. CCn1ccnc1[C@]1(CNC(=O)c2cc3cc(Cl)ccc3o2)NC(=O)NC1=O    5.00

====

assay: Fraction unbound in dog plasma; type: ADME, cell-free, Canis lupus familiaris
value.kind: fraction unbound

1) O=C1NC(=O)[C@](CNC(=O)c2cc3cc(C(F)(F)F)ccc3o2)(C2CC2)N1    0.215
2) Cn1ccnc1[C@]1(CNC(=O)c2cc3cc(C(F)(F)F)ccc3o2)NC(=O)NC1=O    0.196

====

assay: Fraction unbound in human plasma; format: ADME, cell-free
# reported fraction unbound; entries follow
value.kind: fraction unbound

1) Cn1ccnc1[C@]1(CNC(=O)c2cc3cc(C(F)(F)F)ccc3o2)NC(=O)NC1=O    0.245
2) O=C1NC(=O)[C@](CNC(=O)c2cc3cc(C(F)(F)F)ccc3o2)(C2CC2)N1    0.255

====

test: Plasma concentration in Lewis rat model of MIA at 30 mg/mL, sc administered through infusion pump post 3 days MIA induction; format: ADME, organism-based
value.kind: concentration at 72 h (µM)

1. Cn1ccnc1[C@]1(CNC(=O)c2cc3cc(C(F)(F)F)ccc3o2)NC(=O)NC1=O    3.6

====

Known Ratio IC50 of a selection of molecules
species: Homo sapiens; experiment: Selectivity ratio of IC50 for human MMP1 to IC50 for human ADAMTS4
value.kind: Ratio IC50

1) Cn1ccnc1[C@]1(CNC(=O)c2cc3cc(C(F)(F)F)ccc3o2)NC(=O)NC1=O    > 1000
2) CCn1ccnc1[C@]1(CNC(=O)c2cc3cc(Cl)ccc3o2)NC(=O)NC1=O    > 1000
3) CCn1ccnc1[C@]1(CNC(=O)c2cc3cc(C(F)(F)F)ccc3o2)NC(=O)NC1=O    > 1000
4) Cn1ccnc1[C@]1(CNC(=O)c2cc3cc(Cl)ccc3o2)NC(=O)NC1=O    > 1000
5) Cc1cnc([C@]2(CNC(=O)c3cc4cc(Cl)ccc4o3)NC(=O)NC2=O)n1C    > 1000
6) O=C1NC(=O)[C@](CNC(=O)c2cc3cc(C(F)(F)F)ccc3o2)(C2CC2)N1    > 1000
7) Cc1cnc([C@]2(CNC(=O)c3cc4cc(C(F)(F)F)ccc4o3)NC(=O)NC2=O)n1C    > 1000

====

Reported IC50, Interstitial collagenase (Homo sapiens).
value.kind: IC50 (µM)

1. Cc1cnc([C@]2(CNC(=O)c3cc4cc(C(F)(F)F)ccc4o3)NC(=O)NC2=O)n1C    100
2. CCn1ccnc1[C@]1(CNC(=O)c2cc3cc(C(F)(F)F)ccc3o2)NC(=O)NC1=O    100
3. Cn1ccnc1[C@]1(CNC(=O)c2cc3cc(C(F)(F)F)ccc3o2)NC(=O)NC1=O    100
4. O=C1NC(=O)[C@](CNC(=O)c2cc3cc(C(F)(F)F)ccc3o2)(C2CC2)N1    50

Where do the numbers come from? From ChEMBL document CHEMBL4425099.
